Biological target: COX-2 (Homo sapiens)
Construct: a cyclooxygenase activity assay kit starting from Caco-2/TC7 cell lysates was used; endogenous in cells; host or cells: Caco-2/TC7 (human colon carcinoma)
Sequence (P35354 18-604): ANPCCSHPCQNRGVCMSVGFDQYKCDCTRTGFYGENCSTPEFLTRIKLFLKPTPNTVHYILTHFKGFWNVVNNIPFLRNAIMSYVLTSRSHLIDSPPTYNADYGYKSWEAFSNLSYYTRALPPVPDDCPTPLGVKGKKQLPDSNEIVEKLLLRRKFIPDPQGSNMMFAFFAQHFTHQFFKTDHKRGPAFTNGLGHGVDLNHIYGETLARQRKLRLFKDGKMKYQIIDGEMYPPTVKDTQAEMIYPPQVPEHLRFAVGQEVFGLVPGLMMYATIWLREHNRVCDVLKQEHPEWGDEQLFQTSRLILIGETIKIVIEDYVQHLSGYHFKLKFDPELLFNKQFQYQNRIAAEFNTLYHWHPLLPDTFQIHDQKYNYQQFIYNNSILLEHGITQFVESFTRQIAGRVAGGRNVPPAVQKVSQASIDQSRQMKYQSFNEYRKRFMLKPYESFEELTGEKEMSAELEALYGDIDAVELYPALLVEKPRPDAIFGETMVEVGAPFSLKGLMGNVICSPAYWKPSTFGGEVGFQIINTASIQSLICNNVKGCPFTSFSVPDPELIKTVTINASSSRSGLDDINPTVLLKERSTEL
Test: Intracellular COX-2 activity, kit on Caco-2/TC7 cell lysates
Format: cell-based
Conditions: Caco-2/TC7 cells, 24 h incubation with 20 μM of free ligands, mean ± SEM
REPORTED PROPERTY: Percent inhibition of COX-2 (%)
Response body: numeric value in %, unit text excluded.

Please review the following examples before continuing.
COC(=O)[C@H](CCSC)NC(=O)c1ccccc1Nc1cccc(C)c1C [L1]; 63.1
COC(=O)[C@H](CCSC)NC(=O)[C@@H](C)c1ccc2cc(OC)ccc2c1 [L4]; 44.7
COC(=O)[C@H](CCSC)NC(=O)C(C)c1ccc(CC(C)C)cc1 (stereo partly shown) [L2]; 55.8

COC(=O)C(CCSC)NC(=O)Cc1c(C)n(C(=O)c2ccc(Cl)cc2)c2ccc(OC)cc12 (stereo not shown) [L3] has a reported Percent inhibition of COX-2 of 53.6
